- Test system: HDF
- experiment: Induction of p38 phosphorylation in HDF cells at 10 uM incubated at 0.5 to 24 hrs by Western blot analysis
- Format: cell-based
- conditions: Homo sapiens, time 0.5-24 hrs
Active and inactive are the calls of the source. The rule behind the calls is not given here.
outcomeMeasure: Activity

{"compoundSmiles": "CC(=O)O[C@@H]1[C@H](O)C2=C(C(=O)N(CC(=O)O)C2)[C@@]2(C)CCCC(C)(C)[C@H]12", "result": "inactive"}
{"compoundSmiles": "CC(=O)O[C@@H]1[C@H](O)C2=C(C(=O)N([C@H](C(=O)O)[C@@H](C)O)C2)[C@@]2(C)CCCC(C)(C)[C@H]12", "result": "inactive"}
{"compoundSmiles": "CC(=O)O[C@@H]1[C@H](O)C2=C(C(=O)N([C@H](C(=O)O)C(C)C)C2)[C@@]2(C)CCCC(C)(C)[C@H]12", "result": "inactive"}
{"compoundSmiles": "CC[C@H](C)[C@@H](C(=O)O)N1CC2=C(C1=O)[C@@]1(C)CCCC(C)(C)[C@@H]1[C@H](OC(C)=O)[C@@H]2O", "result": "inactive"}
{"compoundSmiles": "CC(=O)O[C@@H]1[C@H](O)C2=C(C(=O)N([C@@H](C)C(=O)O)C2)[C@@]2(C)CCCC(C)(C)[C@H]12", "result": "inactive"}
{"compoundSmiles": "CC(=O)O[C@@H]1[C@H](O)C2=C(C(=O)N([C@@H](CC(C)C)C(=O)O)C2)[C@@]2(C)CCCC(C)(C)[C@H]12", "result": "inactive"}
{"compoundSmiles": "CC(=O)O[C@@H]1[C@H](O)C2=C(C(=O)N([C@@H](Cc3ccccc3)C(=O)O)C2)[C@@]2(C)CCCC(C)(C)[C@H]12", "result": "inactive"}
